System: LIMK1KD (Homo sapiens, UniProt P53667)
Construct: His6 (N, cleaved yes); made in house; host or cells: baculovirus; Sf9 for virus, TriEx insect cells for expression
Sequence (P53667 330-637): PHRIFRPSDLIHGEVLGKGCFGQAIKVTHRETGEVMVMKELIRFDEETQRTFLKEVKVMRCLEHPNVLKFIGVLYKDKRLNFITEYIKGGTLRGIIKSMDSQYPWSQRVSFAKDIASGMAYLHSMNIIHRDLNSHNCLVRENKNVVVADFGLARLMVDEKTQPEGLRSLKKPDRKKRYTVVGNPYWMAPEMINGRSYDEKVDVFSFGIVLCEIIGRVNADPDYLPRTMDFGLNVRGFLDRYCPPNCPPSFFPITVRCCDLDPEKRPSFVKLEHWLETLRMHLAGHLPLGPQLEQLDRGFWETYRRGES
Assay Details: Differential (dynamic) scanning fluorimetry (DSF) assay, LIMK1KD
Type: binding
Experimental Parameters: 2 µM LIMK1KD, compound 10 µM, single shot; read-out: TM Shift LIMK1 (K)
Structures can show the parent of a compound that is named as a salt.
Consider the following compounds and their measured ΔTm at 10 µM readings.
The response must be a number in °C with no trailing unit.

// worked examples, ΔTm at 10 µM included
{"Compound": "CCNC(=O)Nc1ccc(-c2nc3c(c(N4CCOC[C@@H]4C)n2)CCN(C2COC2)C3)cc1 [GDC-0349]", "System": "LIMK1KD (Homo sapiens, UniProt P53667)", "ΔTm at 10 µM (°C)": -0.5}
{"Compound": "O=C(Nc1cccc(Cl)c1)Nc1ncc(CCNc2ncnc3ccsc23)s1 [SNS-314 Mesylate]", "System": "LIMK1KD (Homo sapiens, UniProt P53667)", "ΔTm at 10 µM (°C)": -0.5}
{"Compound": "Cc1ccc(NC(=O)c2ccc(CN3CC[C@H](N(C)C)C3)c(C(F)(F)F)c2)cc1Nc1nccc(-c2cncnc2)n1 [Bafetinib]", "System": "LIMK1KD (Homo sapiens, UniProt P53667)", "ΔTm at 10 µM (°C)": 2.5}

Entry CCc1cccc(CC)c1NC(=O)N1Cc2n[nH]c(NC(=O)c3ccc(N4CCN(C)CC4)cc3)c2C1 [PHA-680632] : reported ΔTm at 10 µM = ?
5

Entry CO[C@H]1C[C@@H]2CC[C@@H](C)[C@@](O)(O2)C(=O)C(=O)N2CCCC[C@H]2C(=O)O[C@H]([C@H](C)C[C@@H]2CC[C@@H](OCCO)[C@H](OC)C2)CC(=O)[C@H](C)/C=C(\C)[C@@H](O)[C@@H](OC)C(=O)[C@H](C)C[C@H](C)/C=C/C=C/C=C/1C [Everolimus (RAD001), Everolimus] : reported ΔTm at 10 µM = ?
0.1

Entry CNC(=O)c1cc(Oc2ccc(NC(=O)Nc3cc(C(C)(C)C)nn3-c3ccc4ncccc4c3)c(F)c2)ccn1 [DCC-2036 (Rebastinib), Rebastinib] : reported ΔTm at 10 µM = ?
10

###

Consider the following compounds and their measured TM Shift LIMK2 (K) readings.
System: LIMK2KD (Homo sapiens)
Construct: The cDNA coding for LIMK2 residues 330 to 632 was PCR amplified; His6 (N, cleaved yes); made in house; host or cells: baculovirus; Sf9 for virus, TriEx insect cells for expression
Sequence (P53671 330-632): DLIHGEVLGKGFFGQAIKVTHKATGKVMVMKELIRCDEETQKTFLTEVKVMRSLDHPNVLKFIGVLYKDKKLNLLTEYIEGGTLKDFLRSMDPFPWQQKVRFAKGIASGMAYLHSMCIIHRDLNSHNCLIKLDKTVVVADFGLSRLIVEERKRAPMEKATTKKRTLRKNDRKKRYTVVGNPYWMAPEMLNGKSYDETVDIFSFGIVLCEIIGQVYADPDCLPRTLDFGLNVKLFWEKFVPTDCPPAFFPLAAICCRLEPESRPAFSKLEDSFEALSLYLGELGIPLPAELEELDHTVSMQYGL
Assay Details: Differential (dynamic) scanning fluorimetry (DSF) assay, LIMK2KD
Type: binding
Experimental Parameters: LIMK2KD, compound 10 µM, single shot; 10 µM

// worked examples, TM Shift LIMK2 (K) included
{"Compound": "CCN(CCO)CCCOc1ccc2c(Nc3cc(CC(=O)Nc4cccc(F)c4)[nH]n3)ncnc2c1", "TM Shift LIMK2 (K)": "0.7 K"}
{"Compound": "Cc1cnc(Nc2ccc(OCCN3CCCC3)cc2)nc1Nc1cccc(S(=O)(=O)NC(C)(C)C)c1 [TG101348 (SAR302503)]", "TM Shift LIMK2 (K)": "0.7 K"}
{"Compound": "N#CCNC(=O)c1ccc(-c2ccnc(Nc3ccc(N4CCOCC4)cc3)n2)cc1 [CYT387]", "TM Shift LIMK2 (K)": "0.8 K"}
{"Compound": "CCn1c(=O)c(-c2cc[nH]n2)cc2c(C)nc(N)nc21 [SAR245409 (XL765)]", "TM Shift LIMK2 (K)": "6.6 K"}
{"Compound": "Cc1[nH]c(/C=C2\\C(=O)Nc3ccccc32)c(C)c1CCC(=O)O [Orantinib]", "TM Shift LIMK2 (K)": "1.0 K"}

Entry CCc1cncnc1N1CCN(Cc2nc3ccc(C(F)(F)F)cc3[nH]2)CC1 [PF-4708671] : reported TM Shift LIMK2 (K) = ?
3.5 K

Entry CC(C)(C)c1nc(-c2cccc(NS(=O)(=O)c3c(F)cccc3F)c2F)c(-c2ccnc(N)n2)s1 : reported TM Shift LIMK2 (K) = ?
11 K

###

Consider the following compounds and their measured ΔTm at 10 µM readings.
System: LIMK1KD (Homo sapiens)
Construct: His6 (N, cleaved yes); made in house; host or cells: baculovirus; Sf9 for virus, TriEx insect cells for expression
Assay Details: Differential (dynamic) scanning fluorimetry (DSF) assay, LIMK1KD
Assay type: binding
Experimental Parameters: 2 µM LIMK1KD, compound 10 µM, single shot; read-out: TM Shift LIMK1 (K)
The response must be a number in °C with no trailing unit.

{"Compound": "Cn1c(=O)c(F)c(Nc2ccc(I)cc2F)c2c(=O)n(C[C@@H](O)CO)cnc21 [TAK-733]", "ΔTm at 10 µM [°C]": -0.5}
{"Compound": "Nc1nccc(Oc2ccc(NC(=O)c3c[nH]cc(-c4ccc(F)cc4)c3=O)cc2F)c1Cl [BMS-794833]", "ΔTm at 10 µM [°C]": 1.5}
{"Compound": "Oc1cc(O)cc(/C=C/c2ccc(O)c(O)c2)c1 [Piceatannol]", "ΔTm at 10 µM [°C]": -0.6}
{"Compound": "CCOc1cc2ncc(C#N)c(Nc3ccc(F)c(Cl)c3)c2cc1NC(=O)/C=C/CN(C)C [Pelitinib (EKB-569), Pelitinib]", "ΔTm at 10 µM [°C]": -0.7}

Entry COc1ccc(S(=O)(=O)N(C(C)=O)c2ccccc2/C=C/c2cc[n+]([O-])cc2)cc1 [HMN-214] : reported ΔTm at 10 µM = ?
2.5

Entry CC(C)(C)NS(=O)(=O)c1cncc(-c2cc(F)c3nc(N)nn3c2)c1 [CZC24832] : reported ΔTm at 10 µM = ?
-0.4

Entry CCCS(=O)(=O)Nc1ccc(F)c(C(=O)c2c[nH]c3ncc(-c4ccc(Cl)cc4)cc23)c1F [Vemurafenib (PLX4032, RG7204), Vemurafenib] : reported ΔTm at 10 µM = ?
1.5

Entry O=C1NC(=O)/C(=C/c2ccc3nccc(-c4ccncc4)c3c2)S1 [GSK1059615] : reported ΔTm at 10 µM = ?
1.2

###

System: LIMK1KD (Homo sapiens, UniProt P53667)
Construct: His6 (N, cleaved yes); made in house; host or cells: baculovirus; Sf9 for virus, TriEx insect cells for expression
Assay Details: Differential (dynamic) scanning fluorimetry (DSF) assay, LIMK1KD
Type: binding
Experimental Parameters: 2 µM LIMK1KD, compound 10 µM, single shot
Where a name gives a salt, the structure may show the parent alone.
Mark No for TM Shift LIMK1 (K) values under 1 K, and Yes for everything at or above.

{"Compound": "CNC(=O)c1cc(Oc2ccc(NC(=O)Nc3ccc(Cl)c(C(F)(F)F)c3)cc2)ccn1 [Sorafenib Tosylate]", "Category": "Yes"}
{"Compound": "COc1ccc2c(c1)c(C1=C(c3c[nH]c4ccccc34)C(=O)NC1=O)cn2CCCN(C)C", "Category": "No"}
{"Compound": "COc1ccc(C(=O)Nc2sc3c(c2C(N)=O)CCCC3)cc1OC", "Category": "Yes"}

Could you tell me if the measured TM Shift LIMK1 (K) of O=C1NCCc2[nH]c(-c3ccncc3)cc21 reaches 1 K or more?
Yes

Could you tell me if the measured TM Shift LIMK1 (K) of Oc1ccc(-c2nc(-c3ccc(F)cc3)c(-c3ccncc3)[nH]2)cc1 reaches 1 K or more?
No

Could you tell me if the measured TM Shift LIMK1 (K) of O=C(NOCC(O)CO)c1cc(Br)c(F)c(F)c1Nc1ccc(I)cc1F (centres unmarked) reaches 1 K or more?
No

###

System: LIMK1KD (Homo sapiens, UniProt P53667)
Construct: His6 (N, cleaved yes); made in house; host or cells: baculovirus; Sf9 for virus, TriEx insect cells for expression
Assay Details: Differential (dynamic) scanning fluorimetry (DSF) assay, LIMK1KD
Type: binding
Experimental Parameters: 2 µM LIMK1KD, compound 10 µM, single shot
Measurement Label: TM Shift LIMK1 (K)
The response must be a number in K with no trailing unit.

// worked examples, TM Shift LIMK1 (K) included
{"Molecule": "CCn1c(-c2nonc2N)nc2cnc(Oc3cccc(NC(=O)c4ccc(OCCN5CCOCC5)cc4)c3)cc21", "Quantitative Readout": 1.0}
{"Molecule": "Cc1cnc(Nc2ccc(OCCN3CCCC3)cc2)nc1Nc1cccc(S(=O)(=O)NC(C)(C)C)c1 [TG101348 (SAR302503)]", "Quantitative Readout": 2.0}
{"Molecule": "CCCCCCCCCCCCc1ccc(S(=O)(=O)Nc2nncs2)cc1", "Quantitative Readout": 0.6}

Entry C=CC(=O)Nc1cccc(Oc2nc(Nc3ccc(N4CCN(C)CC4)cc3)ncc2Cl)c1 : reported TM Shift LIMK1 (K) = ?
1.9

Entry O=c1[nH]c2ccc(Cl)cc2c(N[C@@H]2CN3CCC2CC3)c1-c1nc2ccccc2[nH]1 : reported TM Shift LIMK1 (K) = ?
2.2

Entry CC(C)NC[C@@H](C(=O)N1CCN(c2ncnc3c2[C@H](C)C[C@H]3O)CC1)c1ccc(Cl)cc1 [Ipatasertib] : reported TM Shift LIMK1 (K) = ?
2.3

Entry C=CC(=O)Nc1ccc2ncnc(Nc3cccc(Br)c3)c2c1 : reported TM Shift LIMK1 (K) = ?
0.4

Entry Oc1ccc2ccccc2c1SSc1c(O)ccc2ccccc12 : reported TM Shift LIMK1 (K) = ?
0.0

Entry COc1ccc2cc(-c3nc(-c4ccc([S+](C)[O-])cc4)[nH]c3-c3ccncc3)ccc2c1 (stereo not drawn) : reported TM Shift LIMK1 (K) = ?
1.3

Entry OCCn1cc(-c2cnc3nnn(Cc4ccc5ncccc5c4)c3n2)cn1 : reported TM Shift LIMK1 (K) = ?
0.3

Entry Oc1ccc(Nc2nc(-c3ccc(Cl)cc3)cs2)cc1 : reported TM Shift LIMK1 (K) = ?
-0.4
